Consider the following binders; for each one, report its Kd.
# target.entity: T1, mouse serum albumin (mouse, UniProt P07724 25-608)
# T1 construct: also called MSA
# assay: table of affinities (KD); BIACORE on serum albumin-coated chip according to Example 1;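 further: surface plasmon resonance with dAbs flowed over a chip carrying human, rat or mouse serum albumin, blocked uncoated flow cell as reference, KD from on- and off-rate curve fits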
Numbers only, in nM.

Would you please look over these solved cases?
{"binder": "DOM7m-16 (other, also called MSA16) VL: DIQMTQSPSSLSASVGDRVTITCRASQSIIKHLKWYQQKPGKAPKLLIYGASRLQSGVPSRFSGSGSGTDFTLTISSLQPEDFATYYCQQGARWPQTFGQGTKVEIKR", "unit.label": "nM", "Kd": 50}
{"binder": "DOM7r-16 (other) VL: DIQMTQSPSSLSASVGDRVTITCRASQKIYKNLRWYQQKPGKAPKLLIYNSSILQSGVPSRFSGSGSGTDFTLTISSLQPEDFATYYCQQRYLSPYTFGQGTKVEIKR", "unit.label": "nM", "Kd": 1000}
{"binder": "DOM7r-27 (other) VH: EVQLLESGGGLVQPGGSLRLSCAASGFTFWPYTMSWVRQAPGKGLEWVSTISPFGSTTYYADSVKGRFTISRDNSKNTLYLQMNSLRAEDTAVYYCAKSDVLKTGLDGFDYWGQGTLVTVSS", "unit.label": "nM", "Kd": 250}

Entry DOM7m-26 (other, also called MSA 26) VL: DIQMTQSPSSLSASVGDRVTITCRASQSIYYHLKWYQQKPGKAPKLLIYKASTLQSGVPSRFSGSGSGTDFTLTISSLQPEDFATYYCQQVRKVPRTFGQGTKVEIKR has what Kd? 60
